Catalogue of inhibition readings, one per entry.
- Tested on: NAD-dependent protein deacetylase sirtuin-1 (Homo sapiens) (UniProt Q96EB6)
- Experiment description: Inhibition of His-tagged human recombinant SIRT1 expressed in Escherichia coli at 20 uM using Cbz-Lys(Ac)-AMC as substrate by fluorescence assay

These recorded examples may help you get a feel for the data.
NC(=O)C1Cc2ccccc2Cc2c(-c3ccc(Cl)cc3)n[nH]c21 (racemic) ... 42%
NC(=O)C1CCCc2c(-c3cc4cc(Br)ccc4s3)n[nH]c21 (racemic) ... 38%
NC(=O)C1CCCc2c(-c3csc4ccccc34)n[nH]c21 (racemic) ... 48%
NC(=O)C1CCCc2c(-c3cccc(Cl)c3)n[nH]c21 (racemic) ... 27%

Fill blank: measured inhibition of the compound Cn1c(-c2n[nH]c3c2CC(C)(C)CC3C(N)=O)cc2ccccc21 (racemic) is ____.
< 20%

====

- Tested on: Histone deacetylase 1 (Homo sapiens, UniProt Q13547)
- Sequence (Q13547 whole entry): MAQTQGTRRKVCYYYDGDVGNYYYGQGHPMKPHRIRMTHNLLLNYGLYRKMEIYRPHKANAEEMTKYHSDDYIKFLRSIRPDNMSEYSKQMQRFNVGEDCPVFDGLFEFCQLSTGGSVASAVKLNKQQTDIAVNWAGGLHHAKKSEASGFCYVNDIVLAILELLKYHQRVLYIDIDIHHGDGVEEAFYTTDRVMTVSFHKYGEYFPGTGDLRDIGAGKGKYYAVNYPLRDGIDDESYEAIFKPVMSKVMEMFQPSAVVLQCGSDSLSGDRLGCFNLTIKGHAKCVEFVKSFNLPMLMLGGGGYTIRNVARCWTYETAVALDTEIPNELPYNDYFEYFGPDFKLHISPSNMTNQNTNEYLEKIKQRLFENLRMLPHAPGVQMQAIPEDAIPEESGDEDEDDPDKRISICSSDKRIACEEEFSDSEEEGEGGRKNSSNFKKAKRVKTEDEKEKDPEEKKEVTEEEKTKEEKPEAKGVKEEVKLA
- Experiment description: Inhibition of HDAC1 (unknown origin)
Active and inactive are the calls of the source. No cut-off for these calls is given here.
Measured property: inhibition

CC1(C)Cc2c(-c3ccc(Br)cc3)n[nH]c2C(C(N)=O)C1 (racemic) ... inactive
Cn1c(-c2n[nH]c3c2CCCC3C(N)=O)cc2cc(Cl)ccc21 (racemic) ... inactive
Cc1ccc(-c2n[nH]c3c2CCCC3C(N)=O)cc1 (racemic) ... inactive
NC(=O)C1CCCc2c(-c3cc4ccccc4[nH]3)n[nH]c21 (racemic) ... inactive

Now look at this one.
Notebook entry, Histone deacetylase 1 (Homo sapiens, UniProt Q13547) assay: inhibition of NC(=O)C1CCCc2c(-c3ccc(F)cc3)n[nH]c21 (racemic) = ?
inactive

====

- Tested on: UniProt:Q96EB6
- Sequence (whole entry): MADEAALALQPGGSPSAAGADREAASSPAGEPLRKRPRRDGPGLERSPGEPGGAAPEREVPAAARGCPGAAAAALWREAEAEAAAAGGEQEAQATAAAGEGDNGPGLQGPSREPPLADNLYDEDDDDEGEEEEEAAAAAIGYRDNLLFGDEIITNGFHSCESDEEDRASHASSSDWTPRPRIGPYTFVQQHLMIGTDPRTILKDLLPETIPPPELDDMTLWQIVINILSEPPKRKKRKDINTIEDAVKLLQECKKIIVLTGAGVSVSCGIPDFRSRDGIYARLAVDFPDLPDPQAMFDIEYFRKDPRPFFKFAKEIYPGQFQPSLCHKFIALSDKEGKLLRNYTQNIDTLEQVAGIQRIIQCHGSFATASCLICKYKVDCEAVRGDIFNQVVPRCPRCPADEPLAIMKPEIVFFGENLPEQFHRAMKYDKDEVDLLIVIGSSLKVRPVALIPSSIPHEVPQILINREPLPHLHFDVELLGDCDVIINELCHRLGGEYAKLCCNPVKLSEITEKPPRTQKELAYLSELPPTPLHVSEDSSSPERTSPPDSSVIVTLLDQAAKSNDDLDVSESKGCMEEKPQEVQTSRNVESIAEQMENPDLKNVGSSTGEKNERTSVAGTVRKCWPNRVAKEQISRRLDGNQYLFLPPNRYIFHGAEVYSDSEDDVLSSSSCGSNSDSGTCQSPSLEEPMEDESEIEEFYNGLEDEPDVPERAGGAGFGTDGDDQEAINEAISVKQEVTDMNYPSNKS
- Experiment description: Inhibition of His-tagged human recombinant SIRT1 expressed in Escherichia coli at 20 uM using Cbz-Lys(Ac)-AMC as substrate by fluorescence assay
Decision: inhibition >= 40% yields 1.0, all other cases yield 0.0.

NC(=O)C1CCCc2c(-c3ccc(Cl)cc3Cl)n[nH]c21 (racemic) ... 0.0

Quick check, inhibition >= 40%? NC(=O)C1CCCc2c(-c3ccccc3)n[nH]c21 (racemic)
1.0

Next up: NC(=O)C1CCCc2c(-c3ccc(C(F)(F)F)cc3)n[nH]c21 (racemic)
0.0

Next up: CC1(C)CCC(C(N)=O)c2[nH]nc(-c3ccc(Cl)cc3)c21 (racemic)
0.0

Next up: NC(=O)C1CCCCCc2c(-c3ccc(Cl)cc3)n[nH]c21 (racemic)
0.0

Next up: NC(=O)C1CC(c2ccccc2)Cc2c(-c3ccc(Cl)cc3)n[nH]c21 (mixture of isomers)
1.0

Next up: NC(=O)C1CCCc2c(-c3ccccc3Cl)n[nH]c21 (racemic)
0.0

Next up: NC(=O)C1CCCc2c(-c3ccc(F)cc3)n[nH]c21 (racemic)
1.0

Next up: NC(=O)C1CCCc2c(-c3cc4ccccc4[nH]3)n[nH]c21 (racemic)
1.0

Next up: NC(=O)C1CCCc2c(-c3cccs3)n[nH]c21 (racemic)
1.0
